Just for reference, patent US20080312309A1 is where these values come from.

Experiment: Disposition and mass balance of 14C-vernakalant hydrochloride after single IV and oral doses in CYP2D6 EMs and PMs
Assay type: in vivo, human
Conditions: plasma; oral administration, single 240-mg dose; EMs (n = 5)
parameter: Cmax (ng/mL)
Give your result in ng/mL as a bare value.

// COc1ccc(CCO[C@@H]2CCCC[C@H]2N2CC[C@@H](O[C@@H]3O[C@H](C(=O)O)[C@@H](O)[C@H](O)[C@H]3O)C2)cc1OC [Vernakalant glucuronide] : Cmax value = 496.0

// COc1cc(CCO[C@@H]2CCCC[C@H]2N2CC[C@@H](O)C2)ccc1O : Cmax value = 63.2

// COc1ccc(CCO[C@@H]2CCCC[C@H]2N2CC[C@@H](O)C2)cc1O : Cmax value = 1.41

// COc1cc(CCO[C@@H]2CCCC[C@H]2N2CC[C@@H](O)C2)ccc1OC1OC(C(=O)O)C(O)C(O)C1O (stereo partly shown) [Compound 2 glucuronide] : Cmax value = 3824
